Values from PubChem BioAssay (NCATS)

- experimental.protocol: qHTS of pediatric cancer cell lines to identify multiple opportunities for drug repurposing: Primary screen for Rh18 cells (AID 1347102); note: nearly all actives have a fitted effect of over 65% in size
- run.parameters: Rh18 rhabdomyosarcoma viability, CellTiter-Glo luminescence, 48 h; series mostly up to 46 µM
Records with an inconclusive call do not appear. Calls of active or inactive are those of the source. Calls come from the whole dose curve; as a rule, active = well fitted cell-killing curve with a large enough effect; inconclusive = small, poorly fitted or top-dose-only effect; inactive = flat fitted curve, though single readings scatter.
Returns: one label drawn from true (active), false (inactive)

# molecule, group
data = [
    ("NNCCc1ccccc1", "false"),
    ("c1ccc(-c2nn3c(c2-c2ccnc4cc(OCCN5CCOCC5)ccc24)CCC3)nc1", "false"),
    ("CCc1ccc(CCOc2ccc(CC3SC(=O)NC3=O)cc2)nc1 (stereo unspecified)", "false"),
]

## Input Record request — test call for Cc1c(C)c2c(c(C)c1O)CCC(C)(COc1ccc(CC3SC(=O)NC3=O)cc1)O2 (stereo unspecified)
## Output false

## Input What was the test verdict on CCCc1nn(C)c2c(=O)[nH]c(-c3cc(S(=O)(=O)N4CCN(C)CC4)ccc3OCC)nc12 ?
## Output false

## Input Hi team, can someone confirm the assay call for COc1ccc(CCN2CCN(CCCc3ccccc3)CC2)cc1OC ?
## Output false
